Tested on: UACC-62
Experiment: NCI tumour cell line growth inhibition, 48 h
Active and inactive are the calls of the source. No stated cut-off is given here; in the data, active = GI50 up to about 1.1 µM and inactive = higher.
Outcomes you can answer with include only these: 1 = active, 0 = inactive

Prompt line: Test call, this compound: "COc1ccc2[nH]c3c4c(c5cc(C(C)(C)C)ccc5c3c2c1)C(=O)N(c1ccccc1)C4=O"
Response line: 0

Prompt line: Test call, this compound: "Cc1cc(C)c2c(n1)S(=O)(=O)N(CCCN1CCN(c3cccc(Cl)c3)CC1)C(C(=O)c1ccccc1)=C2O"
Response line: 0

Prompt line: Test call, this compound: COC(=O)c1cc(C)ccc1C1CN=NC12Cc1ccc(C)cc1C2=O (stereo not drawn)
Response line: 0

Prompt line: Test call, this compound: "Nn1c(SCC(=O)NCc2ccccc2)nc2ccccc2c1=O"
Response line: 0

Prompt line: Test call, this compound: "Cn1c(=O)n2n(c1=O)[C@@H](c1ccccc1)[C@H]2c1ccccc1"
Response line: 0

Prompt line: Test call, this compound: "COc1cc(OC)c(C(=O)c2cccs2)cc1N"
Response line: 0

Prompt line: Test call, this compound: CCOC(=O)C1(C#N)C(c2ccccc2)CC(O)(c2ccc([N+](=O)[O-])cc2)C(C(=O)c2ccc([N+](=O)[O-])cc2)C1c1ccccc1 (stereo not drawn)
Response line: 0

Prompt line: Test call, this compound: "O=c1ccn([C@@H]2C[C@@H]2CO)c(=O)[nH]1"
Response line: 0

Prompt line: Test call, this compound: "O=C(/C=C/c1ccc(O)c([N+](=O)[O-])c1)CC(=O)/C=C/c1ccc(O)c([N+](=O)[O-])c1"
Response line: 0

Prompt line: Test call, this compound: O=C1CC(c2ccc(Cl)cc2)Oc2ccccc21 (stereo not drawn)
Response line: 0

Prompt line: Test call, this compound: CC1=CC(C)C(C)N(CCNS(=O)(=O)c2ccc(C)cc2)c2ccccc21 (stereo not drawn)
Response line: 0

Prompt line: Test call, this compound: "O=S(=O)(CF)OCCCCOS(=O)(=O)CF"
Response line: 0

Prompt line: Test call, this compound: "Cc1ccccc1NC(=O)/C=N/O"
Response line: 0

Prompt line: Test call, this compound: "O=[N+]([O-])/C(C(Cl)=C(Cl)Cl)=C(/Sc1ccccc1)N1CCCCC1"
Response line: 0

Prompt line: Test call, this compound: CCO/C=N/C1=C(C#N)C(c2ccc(OC)c(OC)c2)c2c(-c3ccccc3)nn(-c3ccccc3)c2O1 (stereo not drawn)
Response line: 0

Prompt line: Test call, this compound: Cc1ccc(-c2c3c(n(C4OC(CO)C(O)C(O)C4O)c(=S)c2C#N)CC(C)(C)CC3=O)cc1 (stereo not drawn)
Response line: 0

Prompt line: Test call, this compound: COc1cc(/C=c2\sc3n(c2=O)C(c2ccc(Cl)cc2)C2=C(CCCC2C)N=3)cc(OC)c1OC (stereo not drawn)
Response line: 0

Prompt line: Test call, this compound: "O=c1c2cc(I)ccc2nc(S)n1Cc1ccccc1"
Response line: 0

Prompt line: Test call, this compound: NC1=NN(c2ccccc2)C(=O)C1C(=O)CCC(=O)Nc1cccc(Cl)c1 (stereo not drawn)
Response line: 0

Prompt line: Test call, this compound: COc1ccc(C2CC(=O)CC(c3ccc(OC)cc3)C23C(=O)NC(=O)NC3=O)cc1 (stereo not drawn)
Response line: 0

Prompt line: Test call, this compound: "COc1ccc2c(c1OC)OC[C@@H](C1=CC(=O)C=C(O)C1=O)C2"
Response line: 0

Prompt line: Test call, this compound: "Cc1cc(=O)oc2cc(OC(=O)Nc3ccc(Cl)c(Cl)c3)ccc12"
Response line: 0

Prompt line: Test call, this compound: "COc1ccc(C(=O)Nc2ccc(S(=O)(=O)NCC(=O)O)cc2)cc1"
Response line: 0

Prompt line: Test call, this compound: CCOC(=O)C1(C#N)C2(C#N)C(N)=NC(ON=C(C)C)(ON=C(C)C)C12C#N (stereo not drawn)
Response line: 0

Prompt line: Test call, this compound: "CCOC(=O)c1c2ccccc2n2c(=O)n(C)nnc12"
Response line: 0

Prompt line: Test call, this compound: O=C1C(Cl)C(c2ccccc2O)N1n1cnc2ccccc2c1=O (stereo not drawn)
Response line: 0

Prompt line: Test call, this compound: "COc1cc2c(c(OC)c1OC)-c1ccc(SC)c(=O)cc1[C@@H](NCc1ccc(C#N)cc1)CC2"
Response line: 1

Prompt line: Test call, this compound: "O=c1[nH]c(=O)n([C@@H]2C[C@H](CO)[C@H](O)C2)cc1/C=C/Br"
Response line: 0

Prompt line: Test call, this compound: "O=C(C=P(c1ccccc1)(c1ccccc1)c1ccccc1)CC(=S)CC(=O)C=P(c1ccccc1)(c1ccccc1)c1ccccc1"
Response line: 0

Prompt line: Test call, this compound: COC(=O)[C@@H]1COC(C(C)(C)C)N1C(=O)C(c1ccccc1)c1ccccc1 (stereo partly drawn)
Response line: 0

Prompt line: Test call, this compound: O=c1[nH]c(=O)n(C2OC(CO)C(O)C2O)c2c1CCCC2 (stereo not drawn)
Response line: 0

Prompt line: Test call, this compound: "O=c1cc(-c2ccccc2)nc(/C=C(\O)c2ccncc2)n1-c1ccccc1"
Response line: 0

Prompt line: Test call, this compound: C=CC(O)(CBr)CCC(Br)C(=C)C (stereo not drawn)
Response line: 0

Prompt line: Test call, this compound: "O=C1NC(=O)c2ccc([N+](=O)[O-])c3cccc1c23"
Response line: 0

Prompt line: Test call, this compound: CCOC12OC3=C(CC1CC1=C(CCC1=O)O2)C(=O)CC3 (stereo not drawn)
Response line: 0

Prompt line: Test call, this compound: "Cn1c(=O)c2nc(COCc3nc4c(=O)n(C)c(=O)n(C)c4[nH]3)[nH]c2n(C)c1=O"
Response line: 0

Prompt line: Test call, this compound: "c1ccc2c(c1)nc1ccccn12"
Response line: 0

Prompt line: Test call, this compound: "Cc1cccc2c1[nH]c1[nH]c(=O)[nH]c(=O)c12"
Response line: 0
